Where these numbers come from: patent US20240166635A1

What pIC50 was measured for each of the following?
Target: CDK2/CyclinE1 (Homo sapiens (Human))
Experiment: CDK2/CyclinE1 kinase inhibitory activity (Caliper mobility shift)
Settings: read-out: CDK2/Cyclin El IC50
pIC50: −log10 of the molar value.

Required: pIC50, one value per compound below.
1. [2H]C([2H])([2H])NS(=O)(=O)c1ccc(Nc2ncc(C(F)(F)F)c(OC3CCOCCC3O)n2)cc1 (single isomer, unassigned) [Example 102a]
2. NS(=O)(=O)c1ccc(Nc2ncc(Br)c(OC3CCCC3O)n2)cc1 (single isomer, unassigned) [Example 141a]
3. N#Cc1cnc(Nc2ccc(S(N)(=O)=O)cc2)nc1OC1CCCCCC1O (single isomer, unassigned) [Example 22a]
4. [2H]C([2H])([2H])NS(=O)(=O)c1ccc(Nc2ncc(CC)c(OC3COCC3(C)O)n2)cc1 (single isomer, unassigned) [Example 150b]

# output
1: > 8.00; 2: > 8.00; 3: > 8.00; 4: 6.00 to 7.00

Required: pIC50, one value per compound below.
1. N#Cc1cnc(Nc2ccc(S(N)(=O)=O)cc2)nc1N1CCCC(c2ccccc2)C1 (racemic) [Example 84]
2. CC1(O)CCCC1Oc1nc(Nc2ccc(S(N)(=O)=O)cc2)ncc1C1CC1 (single isomer, unassigned) [Example 154a]

# output
1. 7.00 to 8.00
2. > 8.00
